Test: pKa of the aromatic dihydroxyl group
Format: physicochemical
ENDPOINT: pKa
Respond with the number and no other words.

Which value of pKa has been reported for CC(C)NCC(O)c1ccc(O)c(O)c1 (stereo not shown) in the records?
8.72

---

Target: bovine serum albumin (BSA) with D-ribose (Bos taurus, UniProt P02769)
Sequence (P02769 25-607): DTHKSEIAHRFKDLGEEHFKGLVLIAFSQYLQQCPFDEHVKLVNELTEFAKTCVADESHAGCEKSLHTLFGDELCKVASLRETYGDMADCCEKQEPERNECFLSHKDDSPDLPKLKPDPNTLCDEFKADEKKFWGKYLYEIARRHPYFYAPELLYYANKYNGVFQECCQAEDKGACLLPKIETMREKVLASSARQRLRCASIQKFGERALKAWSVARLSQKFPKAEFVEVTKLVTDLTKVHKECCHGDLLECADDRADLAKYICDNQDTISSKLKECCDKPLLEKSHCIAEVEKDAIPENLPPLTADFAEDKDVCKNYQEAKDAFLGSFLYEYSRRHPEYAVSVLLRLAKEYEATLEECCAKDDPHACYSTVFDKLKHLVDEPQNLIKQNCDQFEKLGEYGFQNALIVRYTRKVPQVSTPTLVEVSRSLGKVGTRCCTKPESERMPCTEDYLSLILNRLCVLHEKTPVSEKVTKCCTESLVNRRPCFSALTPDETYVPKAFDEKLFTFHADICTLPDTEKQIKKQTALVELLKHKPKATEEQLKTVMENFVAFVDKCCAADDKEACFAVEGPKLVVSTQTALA
Test: Maillard fluorescence-based anti-glycation assay
Details: in vitro anti-glycation; BSA 0.075 mM, D-ribose 50 mM, 37° C., 5 days
Recorded pIC50 for the following molecules
Friendly reminder that pIC50 comes from taking -log10 of the concentration in mol/L.

Below: 3 molecules and their reported pIC50.
1. NC[C@@H](O)c1ccc(O)c(O)c1 [(S)-Norepinephrine]	4.39
2. CNCC(O)c1ccc(O)c(O)c1 (racemic) [(R,S)-Epinephrine]	4.77
3. CC(C)NC[C@@H](O)c1ccc(O)c(O)c1.O=C(O)C(O)C(O)C(=O)O [(S)-Isoproterenol, (S)-isoproterenol bitartrate]	4.77

Okay, next one:
Find the recorded pIC50 belonging to NC[C@H](O)c1ccc(O)c(O)c1 [(R)-Norepinephrine] and report it.
4.40

// data source = patent US20110060045A1
